# System: C. elegans
# Test Description: microbe, parasite or virus in culture
# Condition Summary: Caenorhabditis elegans, 0 h, read-out: Percentage of motility inhibition 0 h, Table S2, C. elegans SS assay, 110 μM, 0 h, averages of 4 data points
inhibition at 110 µM values by entry
Please give a number only; it is taken to be in %.

The cases that follow already have their inhibition at 110 µM on record.
[
  {
    "Compound": "C=C(C)[C@H](C)c1cc(/C=C/C(=O)c2ccc(O)cc2)c(OC)cc1O",
    "inhibition at 110 µM (%)": 5
  },
  {
    "Compound": "CC(=O)Nc1ncc([N+](=O)[O-])s1 [Nithiamide]",
    "inhibition at 110 µM (%)": 32
  },
  {
    "Compound": "COc1ccc2c(c1OC)C(=O)O[C@@H]2[C@H]1c2cc3c(cc2CCN1C)OCO3 [Hydrastine]",
    "inhibition at 110 µM (%)": 0
  }
]

Could you now look at the following compound, please?
Specify inhibition at 110 µM for CC(C)=CCC[C@](C)(O[C@@H]1O[C@H](CO[C@@H]2O[C@H](CO)[C@@H](O)[C@H](O)[C@H]2O)[C@@H](O)[C@H](O)[C@H]1O)[C@H]1CC[C@]2(C)[C@@H]1[C@H](O)C[C@@H]1[C@@]3(C)CC[C@H](O[C@@H]4O[C@H](CO)[C@@H](O)[C@H](O)[C@H]4O[C@@H]4O[C@H](CO)[C@@H](O)[C@H](O)[C@H]4O)C(C)(C)[C@@H]3CC[C@]12C [Ginsenoside Rb1] , system C. elegans.
4

The values you see were collected from paper PMC11855827.
